Molecular target: T1, human chemokine receptor CCR1 (human, UniProt P32246 1-355)
T1 construct: whole, on cells; also called HEK293-CCR1 transfectants
T1 sequence (looked up): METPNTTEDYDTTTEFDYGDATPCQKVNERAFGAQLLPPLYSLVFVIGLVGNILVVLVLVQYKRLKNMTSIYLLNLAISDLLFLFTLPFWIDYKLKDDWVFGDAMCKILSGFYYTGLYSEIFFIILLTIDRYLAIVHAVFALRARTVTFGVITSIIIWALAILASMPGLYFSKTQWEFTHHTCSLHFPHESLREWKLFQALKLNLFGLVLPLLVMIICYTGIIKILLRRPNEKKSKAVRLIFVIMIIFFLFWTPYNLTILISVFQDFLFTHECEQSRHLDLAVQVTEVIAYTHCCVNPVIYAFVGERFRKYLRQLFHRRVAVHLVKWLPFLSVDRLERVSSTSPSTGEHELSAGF
Test: displacement of 125I-MIP-1α from HEK293-CCR1 cells, filter binding, 3 h at 4°C
attribute-measured: pIC50
Numbers only, as −log10 of the molar value.

1) MIP-1α (ligand, human, UniProt P10147 27-92, looked up, also called macrophage inflammatory protein) ADTPTACCFSYTSRQIPQNFIADYFETSSQCSKPGVIFLTKRSRQVCADPSEEWVQKYVSDLELSA :: 9.27

Okay, now this binder:
input: Sample CKβ8-1(1-116) (ligand, Human recombinant chemokine bought from R&D Systems; also called CCL23 variant) RVTKDAETEFMMSKLPLENPVLLDMLWRRKIGPQMTLSHAAGFHATSADCCISYTPRSIPCSLLESYFETNSECSKPGVIFLTKKGRRFCANPSDKQVQVCMRMLKLDTRIKTRKN — what was its pIC50?
output: 6.69

Just for reference, patent US20060034863A1 is where these values come from.
